Provide the reported TGI of each item.
Tested on: NCI-H226 lung
assay name: NCI tumour cell line growth inhibition, 48 h
Answers are plain numbers, in µM.

| compound | units text | TGI |
| --- | --- | --- |
| N#CC1=C(N)Oc2cc(O)ccc2C1c1cccc2ccccc12 (stereo not given) | µM | 82.3 |

Could you now consider this next compound?
Challenge: Fill in reported TGI for this entry: CCN1C(=O)N(CC)C2C1NN=c1s/c(=C3\C(=O)N(CC(C)(C)C)c4ccccc43)c(=O)n12 (stereo not given)
Response given: 28.1

###

Tested on: NCI-H460 lung
assay name: NCI tumour cell line growth inhibition, 48 h
recorded endpoint: TGI

| compound | recorded endpoint | result |
| --- | --- | --- |
| CC(C(=O)OCc1ccccc1)(c1ccco1)N1C(=O)OC(c2ccccc2)C1c1ccccc1 (configuration not stated) | TGI | > 100 µM |

Batch: TGI for all items listed.
1. CCN1CCC(O)(/C=C/c2ccc(C)cc2)C(C(=O)/C=C/c2ccc(C)cc2)C1 (configuration not stated)
2. Cc1cc(NS(=O)(=O)c2ccc(Nc3c4ccccc4nc4c(C(=O)N5CCN(CCO)CC5)ccc(Cl)c34)cc2)no1
3. Cc1ccc(S(=O)(=O)c2ccc(N)cc2)cc1
4. OCCCNc1nccc(-c2c(-c3ccc(F)cc3)nn3cc(C(F)(F)F)ccc23)n1
5. N#CC1=C(N)Oc2cc(O)ccc2C1c1cccc2ccccc12 (configuration not stated)
6. O=C(/C=C/c1ccccc1Cl)NC1C=Nc2ccc([N+](=O)[O-])cc2NC1 (configuration not stated)

Response given:
1. 16.7 µM
2. > 100 µM
3. > 100 µM
4. > 25 µM
5. 32.5 µM
6. > 100 µM

Batch: TGI for all items listed.
1. Cc1nn(C(=O)Cc2ccccc2)c2c1C(c1ccc(Cl)cc1)SC(N)=N2 (configuration not stated)
2. CC(C)C(=O)Nc1nc2c(ncn2C2OC(CO)C(O)C2O)c(=O)[nH]1 (configuration not stated)
3. COC(=O)/C=C1\CCC(C)O1 (configuration not stated)
4. COc1c(OC(C)=O)c(OC(C)=O)cc2c1-c1ccc(SC)c(=O)cc1C(NC(C)=O)CC2 (configuration not stated)
5. S=C1SSC2N=CC=CC12 (configuration not stated)

Response given:
["> 100 µM", "> 100 µM", "> 100 µM", "> 56.1 µM", "> 100 µM"]
